test: Oral bioavailability in rat at 10 mg/kg
Format: ADME, organism-based
test_context: in vivo
readout_kind: bioavailability (%)
Number in %, nothing else.

The molecule listed as `O=c1[nH]ccc2c(Cc3nnc4ccc(-c5ccccc5)nn34)cccc12` has a reported bioavailability of 35

----------
tested_target: Hepatocyte growth factor receptor (Homo sapiens, UniProt P08581)
Sequence (P08581 whole entry): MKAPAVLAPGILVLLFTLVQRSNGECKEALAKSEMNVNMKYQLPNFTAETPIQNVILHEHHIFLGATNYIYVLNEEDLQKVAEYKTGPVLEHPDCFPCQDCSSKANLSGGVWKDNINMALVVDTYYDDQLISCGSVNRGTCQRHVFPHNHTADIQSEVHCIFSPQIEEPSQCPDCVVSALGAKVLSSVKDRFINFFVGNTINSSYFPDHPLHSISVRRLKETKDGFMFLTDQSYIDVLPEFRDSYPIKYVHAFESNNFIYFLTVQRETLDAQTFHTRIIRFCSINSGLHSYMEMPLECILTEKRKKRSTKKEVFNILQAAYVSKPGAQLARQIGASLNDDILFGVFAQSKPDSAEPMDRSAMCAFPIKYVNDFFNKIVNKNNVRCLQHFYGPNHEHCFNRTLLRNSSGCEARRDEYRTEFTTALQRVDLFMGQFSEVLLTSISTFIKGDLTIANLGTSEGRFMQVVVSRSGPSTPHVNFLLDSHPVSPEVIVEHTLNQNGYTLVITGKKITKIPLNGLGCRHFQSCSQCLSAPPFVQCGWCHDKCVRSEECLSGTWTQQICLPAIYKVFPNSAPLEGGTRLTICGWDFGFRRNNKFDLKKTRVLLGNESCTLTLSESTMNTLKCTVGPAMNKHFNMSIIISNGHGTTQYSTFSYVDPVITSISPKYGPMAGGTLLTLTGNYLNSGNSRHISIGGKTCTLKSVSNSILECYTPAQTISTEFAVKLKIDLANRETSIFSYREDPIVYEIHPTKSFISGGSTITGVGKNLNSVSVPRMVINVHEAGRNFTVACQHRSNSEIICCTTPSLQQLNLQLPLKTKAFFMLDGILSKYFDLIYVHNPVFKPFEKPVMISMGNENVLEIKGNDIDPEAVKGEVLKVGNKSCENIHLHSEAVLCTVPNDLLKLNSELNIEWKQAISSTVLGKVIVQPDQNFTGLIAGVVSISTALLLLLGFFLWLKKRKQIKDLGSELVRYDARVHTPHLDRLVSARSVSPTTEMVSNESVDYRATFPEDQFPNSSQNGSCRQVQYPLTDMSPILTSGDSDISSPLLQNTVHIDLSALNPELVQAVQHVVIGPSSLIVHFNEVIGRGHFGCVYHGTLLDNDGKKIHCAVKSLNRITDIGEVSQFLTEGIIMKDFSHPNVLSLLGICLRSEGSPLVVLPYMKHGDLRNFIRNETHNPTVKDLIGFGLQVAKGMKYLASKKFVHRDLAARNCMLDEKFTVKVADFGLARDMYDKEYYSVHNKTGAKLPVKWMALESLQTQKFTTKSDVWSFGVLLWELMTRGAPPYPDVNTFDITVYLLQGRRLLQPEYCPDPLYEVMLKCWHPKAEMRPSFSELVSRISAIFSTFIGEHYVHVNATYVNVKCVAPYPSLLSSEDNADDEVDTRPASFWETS
test: Inhibition of recombinant c-met by HTRF assay
Consider the following compounds and their measured pIC50 readings.
Value format note: pIC50 is -log10 of concentration (mol/L); just state the number.

Recorded results for 6 compounds are shown here.
Cn1cc(-c2ccc3nnc(Cc4cccc5c(=O)[nH]ccc45)n3n2)cn1 : 8.70
O=c1[nH]ccc2c(Cc3nnc4ccc(-c5cnn(CCO)c5)nn34)cccc12 : 8.70
O=c1[nH]ccc2c(Cc3nnc4ccc(-c5cccnc5)nn34)cccc12 : 8.30
O=c1[nH]ccc2c(Cc3nnc4ccc(N5CCCC5)nn34)cccc12 : 7.57
O=c1[nH]ccc2c(Cc3nnc4ccc(-c5cccc(Cl)c5)nn34)cccc12 : 8.15
COc1cccc(-c2ccc3nnc(Cc4cccc5c(=O)[nH]ccc45)n3n2)c1 : 8.30

The compound listed as `O=c1[nH]ccc2c(Cc3nnc4ccc(-c5cnn(C6CCNCC6)c5)nn34)cccc12` has a reported pIC50 of 7.57

The compound listed as `O=c1[nH]ccc2c(Cc3nnc4ccc(-c5ccsc5)nn34)cccc12` has a reported pIC50 of 8.40

The compound listed as `O=c1[nH]ccc2c(Cc3nnc4ccc(-c5ccccc5Cl)nn34)cccc12` has a reported pIC50 of 8.40

The compound listed as `O=c1[nH]ccc2c(Cc3nnc4ccc(-c5cccc(F)c5)nn34)cccc12` has a reported pIC50 of 8.52
